Test system: panel of breast cancer cell lines
Test: Compound A with targeted agents and chemotherapies, 72-hour in vitro proliferation assays
Format: cell-based
Details: SUM159PT cells; combination of compound A with the named agent; 72-hour proliferation
Label fulfilled when Synergy Score is strictly below 1; at or above that, label not fulfilled.

COMPOUND: CO[C@H]1C[C@@H]2CC[C@@H](C)[C@@](O)(O2)C(=O)C(=O)N2CCCC[C@H]2C(=O)O[C@H]([C@H](C)C[C@@H]2CC[C@@H](OCCO)[C@H](OC)C2)CC(=O)[C@H](C)/C=C(\C)[C@@H](O)[C@@H](OC)C(=O)[C@H](C)C[C@H](C)/C=C/C=C/C=C/1C [Everolimus]
CAT: not fulfilled
//
COMPOUND: N.N.[Cl][Pt][Cl] [Cisplatin]
CAT: fulfilled
//
COMPOUND: N.N.O=C([O-])C1(C(=O)[O-])CCC1.[Pt+2] [Carboplatin]
CAT: fulfilled
//
COMPOUND: C[C@]12CC[C@@H]3c4ccc(O)cc4C[C@@H](CCCCCCCCC[S+]([O-])CCCC(F)(F)C(F)(F)F)[C@H]3[C@@H]1CC[C@@H]2O (some centres unmarked) [Fulvestrant]
CAT: not fulfilled

Now consider the entry below.
Lab note: Synergy Score threshold 1. Does this compound come in strictly under it? CC(=O)O[C@@]12CO[C@@H]1C[C@H](O)[C@@]1(C)C(=O)[C@H](O)C3=C(C)[C@@H](OC(=O)[C@H](O)[C@@H](NC(=O)OC(C)(C)C)c4ccccc4)C[C@@](O)([C@@H](OC(=O)c4ccccc4)[C@H]21)C3(C)C [Docetaxel]
not fulfilled

====

Tested on: panel of breast cancer cell lines
Assay: Compound A with targeted agents and chemotherapies, 72-hour in vitro proliferation assays
Type: cell-based
Settings: CAL-85-1 cell line; compound A × partner; 72-hour proliferation
What Bliss Volume was measured for each of the following?

ITEM_SMILES: Cc1c(-c2ccc(N3CCc4cccc(C(=O)Nc5nc6ccccc6s5)c4C3)nc2C(=O)O)cnn1CC12CC3CC(CC(C3)C1)C2
Bliss Volume: 49.08

ITEM_SMILES: O=C(c1cc(Cc2n[nH]c(=O)c3ccccc23)ccc1F)N1CCN(C(=O)C2CC2)CC1
Bliss Volume: 4.52

Hi! What's the reported Bliss Volume for CC(C)NC[C@@H](C(=O)N1CCN(c2ncnc3c2[C@H](C)C[C@H]3O)CC1)c1ccc(Cl)cc1 on panel of breast cancer cell lines?
−1.63

====

System: panel of breast cancer cell lines
Assay: Compound A with targeted agents and chemotherapies, 72-hour in vitro proliferation assays
Assay type: cell-based
Conditions: HCC70; compound A × partner, 72-hour proliferation
RESULT_TYPE: Loewe Volume
Give bare numbers.

COMPOUND: CC1(C)CCC(c2ccc(Cl)cc2)=C(CN2CCN(c3ccc(C(=O)NS(=O)(=O)c4ccc(N[C@H](CCN5CCOCC5)CSc5ccccc5)c(S(=O)(=O)C(F)(F)F)c4)cc3)CC2)C1
Loewe Volume: 44.97

COMPOUND: CC(=O)O[C@@]12CO[C@@H]1C[C@H](O)[C@@]1(C)C(=O)[C@H](O)C3=C(C)[C@@H](OC(=O)[C@H](O)[C@@H](NC(=O)OC(C)(C)C)c4ccccc4)C[C@@](O)([C@@H](OC(=O)c4ccccc4)[C@H]21)C3(C)C
Loewe Volume: 20.81

COMPOUND: CC(C)NC[C@@H](C(=O)N1CCN(c2ncnc3c2[C@H](C)C[C@H]3O)CC1)c1ccc(Cl)cc1
Loewe Volume: 13.10

COMPOUND: C[C@]12CC[C@@H]3c4ccc(O)cc4C[C@@H](CCCCCCCCC[S+]([O-])CCCC(F)(F)C(F)(F)F)[C@H]3[C@@H]1CC[C@@H]2O (stereo partly drawn)
Loewe Volume: 10.67

COMPOUND: Cn1ncnc1[C@H]1c2n[nH]c(=O)c3cc(F)cc(c23)N[C@@H]1c1ccc(F)cc1
Loewe Volume: 15.13

# next compound below
Hi! What's the reported Loewe Volume for N.N.[Cl][Pt][Cl] [Cisplatin] on panel of breast cancer cell lines?
2.24
